Data provenance is patent US6346532B1.

Structures can show the parent of a compound that is named as a salt.
Outcome measure: melting point

[
  {
    "Molecule": "Cc1cn(Cc2ccc(F)cc2)c(CC(=O)Nc2ccc(CCNC[C@H](O)c3ccccc3)cc2)n1.Cl.Cl",
    "Value measured": "204 to 207 °C"
  },
  {
    "Molecule": "Cl.O=C(Cc1nnn[nH]1)Nc1ccc(CCNC[C@H](O)c2ccccc2)cc1",
    "Value measured": "259 to 261 °C"
  },
  {
    "Molecule": "Cl.Cl.O=C(Cc1cn(Cc2ccccc2)cn1)Nc1ccc(CCNC[C@H](O)c2ccccc2)cc1",
    "Value measured": "139 to 141 °C"
  },
  {
    "Molecule": "Cl.Cl.O=C(Nc1ccc(CCNC[C@H](O)c2ccccc2)cc1)Nc1ccccn1",
    "Value measured": "132 to 133 °C"
  },
  {
    "Molecule": "O=C(Cc1nc2ccccc2[nH]1)Nc1ccc(CCNC[C@H](O)c2ccccc2)cc1",
    "Value measured": "158 to 165 °C"
  },
  {
    "Molecule": "O=C(Cc1ncccn1)Nc1ccc(CCNC[C@H](O)c2ccccc2)cc1 (as salt: hydrochloride)",
    "Value measured": "208 to 210 °C"
  },
  {
    "Molecule": "Cl.Cl.O=C(Cc1nccn1Cc1ccc(C(F)(F)F)cc1)Nc1ccc(CCNC[C@H](O)c2ccccc2)cc1",
    "Value measured": "197 to 203 °C"
  },
  {
    "Molecule": "Cl.Cl.Nc1nc(C(=O)C(=O)Nc2ccc(CCNC[C@H](O)c3ccccc3)cc2)cs1",
    "Value measured": "205 to 210 °C (dec.)"
  },
  {
    "Molecule": "Nc1cccc(CC(=O)Nc2ccc(CCNCC(O)c3ccccc3)cc2)n1 (stereo not drawn) (as salt: hydrochloride)",
    "Value measured": "150 to 152 °C"
  },
  {
    "Molecule": "Cc1cnc(CC(=O)Nc2ccc(CCNC[C@H](O)c3ccccc3)cc2)n1Cc1ccc(F)cc1.Cl.Cl",
    "Value measured": "219 to 223 °C"
  },
  {
    "Molecule": "Cl.O=C(Cc1ccncc1)Nc1ccc(CCNC[C@H](O)c2ccccc2)cc1",
    "Value measured": "195 to 198 °C"
  },
  {
    "Molecule": "Cl.Cl.O=C(Cc1nc2ccccc2s1)Nc1ccc(CCNC[C@H](O)c2ccccc2)cc1",
    "Value measured": "228 to 233 °C (dec.)"
  },
  {
    "Molecule": "Cl.Cl.O=C(Cc1nccn1Cc1cc(F)c(F)c(F)c1)Nc1ccc(CCNC[C@H](O)c2ccccc2)cc1",
    "Value measured": "209 to 213 °C"
  },
  {
    "Molecule": "O=C(Cc1nnnn1Cc1ccc(Cl)c(Cl)c1)Nc1ccc(CCNCC(O)c2ccccc2)cc1 (stereo not drawn) (as salt: hydrochloride)",
    "Value measured": "240 to 242 °C"
  },
  {
    "Molecule": "Cl.Cl.N=C(N)Nc1nc(CC(=O)Nc2ccc(CCNC[C@H](O)c3ccccc3)cc2)cs1",
    "Value measured": "> 230 °C (dec.)"
  },
  {
    "Molecule": "O=C(Nc1ccc(CCNCC(O)c2ccccc2)cc1)c1ccccn1 (stereo not drawn) (as salt: hydrochloride)",
    "Value measured": "223 to 225 °C"
  },
  {
    "Molecule": "Cl.Cl.O=C(Cc1n[nH]c(SCc2ccccc2)n1)Nc1ccc(CCNC[C@H](O)c2ccccc2)cc1",
    "Value measured": "222 to 224 °C"
  },
  {
    "Molecule": "Cl.Cl.O=C(Cc1cn(Cc2cccc(Cl)c2)cn1)Nc1ccc(CCNC[C@H](O)c2ccccc2)cc1",
    "Value measured": "140 to 143 °C"
  },
  {
    "Molecule": "Cl.Cl.O=C(Cc1nccn1Cc1cccc(I)c1)Nc1ccc(CCNC[C@H](O)c2ccccc2)cc1",
    "Value measured": "233 to 234 °C"
  },
  {
    "Molecule": "Cl.Cl.O=C(Cc1nccn1Cc1ccc(Br)cc1)Nc1ccc(CCNC[C@H](O)c2ccccc2)cc1",
    "Value measured": "221 to 223 °C"
  },
  {
    "Molecule": "Cl.Cl.O=C(Cc1nccn1Cc1c(F)c(F)c(F)c(F)c1F)Nc1ccc(CCNC[C@H](O)c2ccccc2)cc1",
    "Value measured": "190 to 193 °C"
  },
  {
    "Molecule": "Cl.O=C(Cc1ccccn1)Nc1ccc(CCNC[C@H](O)c2cccc(Cl)c2)cc1",
    "Value measured": "221 to 222 °C"
  },
  {
    "Molecule": "Cl.O=C(CC1=NNN(Cc2ccc(F)cc2)N1)Nc1ccc(CCNC[C@H](O)c2ccccc2)cc1",
    "Value measured": "233 to 235 °C"
  },
  {
    "Molecule": "Cl.O=C(Cc1cccc(OCc2ccccc2)n1)Nc1ccc(CCNC[C@H](O)c2ccccc2)cc1 [60]",
    "Value measured": "214 to 216 °C"
  },
  {
    "Molecule": "O=C(Cc1nccn1Cc1ccc(Cl)cc1)Nc1ccc(CCNC[C@H](O)c2ccccc2)cc1 (as salt: hydrochloride) [Example 23, dihydrochloride]",
    "Value measured": "203 to 209 °C"
  },
  {
    "Molecule": "Cl.Cl.O=C(Cc1nccn1-c1ccc2ccccc2c1)Nc1ccc(CCNC[C@H](O)c2ccccc2)cc1",
    "Value measured": "208 to 214 °C"
  },
  {
    "Molecule": "Cl.Cl.O=C(Cn1cncn1)Nc1ccc(CCNC[C@H](O)c2ccccc2)cc1",
    "Value measured": "237 to 240 °C"
  }
]
